Attribution: patent EP4745117A1

MEASUREMENT TARGET: Aβ1-42 (Homo sapiens)
Construct: dissolving Aβ1-42 or Tau-RD3 (Tau repeat domain 3) monomers in DMSO
Sequence (P05067 672-713 limits assumed): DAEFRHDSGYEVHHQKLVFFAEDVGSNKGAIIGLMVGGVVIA
RUN DESCRIPTION: Amyloid-beta disaggregation test by Thioflavin-T analysis
Type: biochemical
TEST CONDITIONS: Aβ1-42 50 µM aggregated 24 hours, then compound 0 - 500 µM for 48 hours at 37 °C; concentration disaggregating 50 % of aggregates vs control; read-out: EC50 (µM) Aβ
Procedure: Each compound was dissolved in DMSO to a concentration of 10 mM. Then, the compounds were diluted with 6 % DMSO (in DW) for use. […] 25 µL of each completed reaction solution was added to each well of a 96-well fluorescence analysis plate, and 75 µL of the Thioflavin-T solution was added to each well. After reacting for 5 minutes at room temperature in the dark, the fluorescence value was measured at 450 nm (excitation) and 485 nm (emission) using a multi-mode microplate reader. […]
ENDPOINT NAME: EC50

Please review the entries below; each comes with its answer.
Exercise: Consider the compound O=C1C(c2ccccc2)=C(c2ccccc2)c2ccc(N3CCOCC3)cc21 [Compound 12, 6-morpholino-2,3-diphenyl-1H-inden-1-one] and give its measured EC50.
Key: < 20 µM

Exercise: Further, for O=C1C(c2ccccc2)=C(c2ccccc2)c2ccc(OCCCc3ccccc3)cc21 [Compound 78] ?
Key: 100 to 250 µM

Exercise: Further, for Cc1ncsc1C1=C(c2cccnc2)C(=O)c2cc(OCCO)ccc21 [Compound 36] ?
Key: 100 to 250 µM

Exercise: Further, for CC(=O)Oc1ccc2c(c1)C(=O)C(Br)=C2c1ccn(C)n1 [Compound 24] ?
Key: > 250 µM

Exercise: Further, for Cc1ncsc1C1=C(c2ccc(CN3CCN(C)CC3)cc2)C(=O)c2ccccc21 [Compound 86] ?
Key: 20 to 100 µM

Exercise: Further, for Cc1ncsc1C1=C(c2cccnc2)C(=O)c2cc(NC(=O)C3CCOCC3)ccc21 [Compound 61] ?
Key: > 250 µM

Others:
Exercise: Consider the compound COc1cccc(OC)c1C1=C(c2cccnc2)C(=O)c2cc(O)ccc21 [Compound 45-8] and give its measured EC50.
Key: 100 to 250 µM

Exercise: Further, for CCCOc1ccc2c(c1)C(=O)C(c1ccccc1)=C2c1ccccc1 [Compound 3, 2,3-diphenyl-6-propoxy-1H-inden-1-one] ?
Key: < 20 µM
